# Tgt: c-Src SH2
# Experiment: SH2 binding enrichment of the phosphorylated peptide, bacterial display (enrichment ratio); higher = better substrate or ligand; peptides without Tyr show the background;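 also: peptide library displayed on the E. coli surface as eCPX fusions, selected cells deep-sequenced, score is each peptide's frequency after selection divided by its frequency in the input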
Recorded measurements of SH2 binding enrichment, one per entry
Observed property: SH2 binding enrichment

1) TKAEKYVNKPK [PLCG1_Y991_A995P]: 0.999
2) YIGVTYKNKED [PDGFRA_Y993_E996K]: 0.961
3) VQVAFYTMMMN [SPATA17_Y84_YF]: 0.721
4) LLANAYIYDVQ [L1CAM_Y418_V421D]: 0.818
5) RRNSPYSQTMK [TET2_Y819]: 0.545
6) RHAASYSSDSE [REPS1_Y116]: 0.569
